Answer each item with its documented Bacterial growth relative to medium, M. luteus, replicate 2.
- Tested on: Micrococcus luteus DSM 20030
- assay_protocol: Antibacterial growth assay (OD600)
- reported_conditions: OD600, medium = 100, MH II broth, 37 °C, peptide 200 µM mixed 50 µL + 50 µL with bacteria; Figure 7: 48 h; replicate column 2
Number only, please.

Prompt: Request the reported Bacterial growth relative to medium, M. luteus, replicate 2 associated with LLDVVKSKIGQTGLL [LS-AMP-A16]
Completion: 84.1216

Prompt: Request the reported Bacterial growth relative to medium, M. luteus, replicate 2 associated with SLLGLLDVVKSKVGQTGLL [LS-AMP-A18]
Completion: 115.766

Prompt: Request the reported Bacterial growth relative to medium, M. luteus, replicate 2 associated with SLLGLLDVVKSKIGQTG [LS-AMP-A14]
Completion: 114.302

Prompt: Request the reported Bacterial growth relative to medium, M. luteus, replicate 2 associated with SLLGLLDVVKNKVGQIG [LS-AMP-A4]
Completion: 93.5811

Prompt: Request the reported Bacterial growth relative to medium, M. luteus, replicate 2 associated with SLLGLLDVVKSKIGQT [LS-AMP-A15]
Completion: 100.338

Prompt: Request the reported Bacterial growth relative to medium, M. luteus, replicate 2 associated with SLFGLLDLVKSKVGQTGLL [LS-AMP-A1]
Completion: 135.023

Prompt: Request the reported Bacterial growth relative to medium, M. luteus, replicate 2 associated with SLLGLLDVVKNTVGQTG [LS-AMP-A9]
Completion: 91.4416

Prompt: Request the reported Bacterial growth relative to medium, M. luteus, replicate 2 associated with SLLGLLDVVKSKIGQTGLL [LS-AMP-A13]
Completion: 162.387

Prompt: Request the reported Bacterial growth relative to medium, M. luteus, replicate 2 associated with SLLGLLDVVKNKVGQI [LS-AMP-A5]
Completion: 97.1848

Prompt: Request the reported Bacterial growth relative to medium, M. luteus, replicate 2 associated with SLLGLLDVVKNTVGQ [LS-AMP-A11]
Completion: 92.3422

Prompt: Request the reported Bacterial growth relative to medium, M. luteus, replicate 2 associated with GSLLGLLDVVKSKVGQTGLL [LS-AMP-A19]
Completion: 63.626

Prompt: Request the reported Bacterial growth relative to medium, M. luteus, replicate 2 associated with SLLGLLDVVKNTVGQTGLL [LS-AMP-A8]
Completion: 103.716

Prompt: Request the reported Bacterial growth relative to medium, M. luteus, replicate 2 associated with SLFGLLDLVKNKVGQTGLL [LS-AMP-A2]
Completion: 181.194

Prompt: Request the reported Bacterial growth relative to medium, M. luteus, replicate 2 associated with SLLGLLDVVKNTVGQT [LS-AMP-A10]
Completion: 88.7389

Prompt: Request the reported Bacterial growth relative to medium, M. luteus, replicate 2 associated with DVVKSKVGQT [LS-AMP-A20]
Completion: 89.1892

Prompt: Request the reported Bacterial growth relative to medium, M. luteus, replicate 2 associated with SLLGLLDVVKNKVGQIGLL [LS-AMP-A3]
Completion: 132.545

Source listed as paper PMC10221074.
